- assay.system: human DLL3 (Homo sapiens, UniProt Q9NYJ7)
- Sequence (Q9NYJ7 27-618): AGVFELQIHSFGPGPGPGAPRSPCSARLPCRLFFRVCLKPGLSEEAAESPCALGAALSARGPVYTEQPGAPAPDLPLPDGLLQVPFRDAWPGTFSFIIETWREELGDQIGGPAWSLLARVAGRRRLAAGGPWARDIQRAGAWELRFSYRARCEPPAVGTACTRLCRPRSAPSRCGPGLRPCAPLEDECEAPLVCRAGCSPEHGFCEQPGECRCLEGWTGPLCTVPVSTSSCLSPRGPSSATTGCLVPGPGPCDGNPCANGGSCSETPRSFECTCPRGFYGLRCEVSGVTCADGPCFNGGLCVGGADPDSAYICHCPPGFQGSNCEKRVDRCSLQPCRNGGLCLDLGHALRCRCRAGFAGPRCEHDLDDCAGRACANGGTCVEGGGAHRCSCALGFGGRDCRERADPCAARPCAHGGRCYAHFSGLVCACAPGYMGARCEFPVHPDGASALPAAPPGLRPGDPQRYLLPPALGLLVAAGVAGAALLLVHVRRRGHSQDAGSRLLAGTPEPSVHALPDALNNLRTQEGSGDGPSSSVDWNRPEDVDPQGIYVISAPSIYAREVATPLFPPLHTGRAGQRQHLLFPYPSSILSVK
Bridge positions count the residues as written; N and C are the ends. Square brackets hold non-standard residues; d marks the D form. Peptide text beside a SMILES is read from it. * marks the point of attachment. DOTA = O=C(O)CN1CCN(CC(=O)O)CCN(CC(=O)*)CCN(CC(=O)O)CC1; Phe(4-COOH) = N[C@@H](Cc1ccc(C(=O)O)cc1)C(=O)O; Ahx = NCCCCCC(=O)O
Catalogue of Kd values

compound="CSCC[C@H](NC(C)=O)C(=O)N[C@@H](CO)C(=O)N[C@@H](CC(=O)O)C(=O)N[C@H]1CSSC[C@@H](C(=O)N[C@@H](C)C(=O)N[C@@H](Cc2ccccc2)C(=O)N[C@@H](CC(=O)O)C(N)=O)NC(=O)[C@H](CC(N)=O)NC(=O)[C@H](Cc2c[nH]c3ccccc23)NC(=O)[C@H](CCC(N)=O)NC(=O)[C@H](CC(C)C)NC(=O)[C@H](Cc2c[nH]c3ccccc23)NC1=O [compound 27] (Ac-MSDCWLQWNCAFD-NH2; disulfide 4-10)" reported="> 100 nM"

Let us move to another entry and its Kd.
Which value of Kd has been reported for CC(C)C[C@@H]1NC(=O)[C@H](Cc2c[nH]c3ccccc23)NC(=O)[C@@H](NC(=O)[C@H](CC(=O)O)NC(=O)[C@H](CO)NC(=O)CCCCCNC(=O)CN2CCN(CC(=O)O)CCN(CC(=O)O)CCN(CC(=O)O)CC2)CSSC[C@@H](C(=O)N2CCC[C@H]2C(=O)N[C@@H](Cc2ccc(C(=O)O)cc2)C(=O)N[C@@H](CC(=O)O)C(N)=O)NC(=O)[C@H](CC(N)=O)NC(=O)[C@H](Cc2c[nH]c3ccccc23)NC(=O)[C@H](CCC(N)=O)NC1=O [compound 35] ({DOTA-Ahx}-SDCWLQWNCP[Phe(4-COOH)]D-NH2; disulfide 3-9) in the records?
> 100 nM

The reported measurements were obtained from patent US20250186541A1.
